// reported TGI for each item listed
Tested on: T-47D breast
experimentalProtocol: NCI tumour cell line growth inhibition, 48 h

COc1ccc(-c2nc3sc(-c4ccc(Cl)cc4)cn3n2)cc1 ... > 50 µM

Task: Could you share which TGI value was measured for N#Cc1nc(CCCCCN2C(=O)c3ccccc3C2=O)oc1N ?
Output: > 100 µM

Task: Could you share which TGI value was measured for O=C(O)[C@@H]1[C@H](C(=O)O)[C@H](C(=O)O)C[C@@H]1C(=O)O ?
Output: > 100 µM

----------
// reported TGI for each item listed
Tested on: SNB-78 CNS
experimentalProtocol: NCI tumour cell line growth inhibition, 48 h

CN(C)c1ccc([O-])cc1.CN(C)c1ccc([O-])cc1.CN(C)c1ccc([O-])cc1.CN(C)c1ccc([O-])cc1.[Ti+4] ... > 100 µM

Task: Could you share which TGI value was measured for OCCCOC(c1ccccc1)(c1ccccc1)c1ccccc1 ?
Output: > 100 µM

Task: Could you share which TGI value was measured for CC(C)C1(O)C(c2ccccc2)=C(c2ccccc2)C(c2ccccc2)=C1c1ccccc1 ?
Output: > 100 µM

Task: Could you share which TGI value was measured for C=C(CCCCCCCCC)CC(=O)SCCNC(=O)CCNC(=O)C(O)C(C)(C)COP(=O)(O)OP(=O)(O)OCC1OC(n2cnc3c(N)ncnc32)C(O)C1OP(=O)(O)O (centres undefined) ?
Output: 65 µM

----------
System: SK-MEL-28 melanoma
experimentalProtocol: NCI tumour cell line growth inhibition, 48 h
experimentalEndpoint: TGI

Here is how some compounds turned out for TGI.
Cc1ccc(C2=NOC(=O)[C@@H]3CCCC[C@@H]23)cc1 ... > 100 µM
CC(C)CNCC(O)COc1ccc(C(C)(C)c2ccc(OCC(O)CNCC(C)C)cc2)cc1 (stereo not given) ... 3.69 µM
O=C(Nc1cccs1)c1c(O)[nH]c(=S)[nH]c1=O ... > 100 µM
COc1ccc2c(c1)C(=O)c1c-2n(CCCN=[N+]=[N-])c(=O)c2cc(N(C)C)ccc12 ... > 100 µM
CN1CCN(c2ccc(NC(=O)c3nc4ccc5[nH]ncc5c4c4c3CCCC4)cc2C(F)(F)F)CC1 ... 1.71 µM
CCc1c(Cc2cccc3ccccc23)n2c(nc1=O)SCC2OCCO (stereo not given) ... > 100 µM
CSC(CC(=O)O)C(=O)O (stereo not given) ... > 100 µM
CCc1n(Cc2ccc3ccccc3n2)cc[n+]1Cc1ccc2ccccc2n1 ... 14.7 µM

Task: Could you share which TGI value was measured for CCCCc1cc2c(C)cc(=O)oc2c(O)c1O ?
Output: > 100 µM

Task: Could you share which TGI value was measured for COc1nc(N(C)C)nc2c1n(C)c[n+]2C ?
Output: > 100 µM

----------
// reported TGI for each item listed
Tested on: MALME-3M melanoma
experimentalProtocol: NCI tumour cell line growth inhibition, 48 h

Here is how some molecules turned out for TGI.
CCC(=O)O[C@H]1CC[C@H]2[C@@H]3CC[C@H]4CC(=O)[C@H](C)C[C@]4(C)[C@H]3CC[C@]12C ... > 100 µM
C=C1SC(=Nc2c(C)cc(C)cc2C)N(C(=O)c2sc3ccccc3c2Cl)C12CCCCC2 ... > 100 µM
C[C@H](NC(=O)[C@@H]1CSSC[C@@H](NC(=O)c2nc3ccccc3cc2O)C(=O)NCC(=O)N1C)c1ccccc1 ... 14 µM
Cc1cc(O)c(C(C)C)cc1SC#N ... 35.9 µM
CCn1c(C(=O)N(C2CC2)C2CC2)cc2c3c(ncn3C)c(Nc3cc(C)n(C)n3)nc21 ... > 100 µM
CCCCS(=O)CCC(N)C(=O)O (configuration not stated) ... > 100 µM
CCN(CC)CCNc1ccc([N+](=O)[O-])c2sc3ccccc3c(=O)c12 ... 3.63 µM
Cc1ccc(C(=O)O)c(CC2Cc3c(C)cccc3C2=O)c1 (configuration not stated) ... > 100 µM
O=[N+]([O-])c1ccc2nc(-c3ccccn3)c(-c3ccccn3)nc2c1 ... > 100 µM
O=C(CCN1CCCC1)Nc1ccc2sc3ccccc3c(=O)c2n1 ... 17.6 µM

Task: Could you share which TGI value was measured for C/C=C\C(CC(=O)NCCc1cn(C(=O)OCc2ccccc2)c2ccccc12)CC(=O)OC (configuration not stated) ?
Output: > 100 µM

Task: Could you share which TGI value was measured for CCc1c(Cc2cccc3ccccc23)n2c(nc1=O)SCC2OCCO (configuration not stated) ?
Output: > 100 µM

Task: Could you share which TGI value was measured for CS(=O)(=O)OCCN1CCN(C(=O)c2cccc3c(Nc4ccc(S(=O)(=O)N=C(N)N)cc4)c4ccccc4nc23)CC1 ?
Output: > 100 µM
